System: UO-31 renal
measurement.description: NCI tumour cell line growth inhibition, 48 h
Below, each of the compounds is paired with its reported TGI value.

- compound: "N#C[C@]12CC3(CC[C@H]1CC1(C2)OCCO1)OCCO3"
  TGI: "> 100 µM"
- compound: "CCCC[P+](CCCC)(CCCC)C(C(=O)OC)C(C(=O)OC)=C1SC(C(=O)OC)=C(C(=O)OC)S1 (stereo unspecified)"
  TGI: "> 100 µM"
- compound: "CC1=C(C(=O)Nc2ccc(F)c(Cl)c2)C(c2cccc(O)c2)NC(=S)N1 (stereo unspecified)"
  TGI: "> 50 µM"
- compound: "O=C(Nc1ccccc1)O/N=C1/CCCC/C1=C\\c1ccccc1"
  TGI: "27 µM"
- compound: "Cc1cccc(/C=N/NC(=S)NC2CCCCC2)n1"
  TGI: "> 89.5 µM"
- compound: "CC(=O)CC(=O)CCCC(=O)Nc1ccc(Cl)cc1Cl"
  TGI: "> 100 µM"
- compound: "COc1cccc(/C=C\\c2cc(OC)c(OC)c(OC)c2)c1"
  TGI: "33 µM"
- compound: "COc1cccc2c(Nc3ccc(C(=O)NCCNCCO)cc3)cc(-c3ccccc3)nc12"
  TGI: "> 100 µM"
- compound: "COc1ccc(C[C@H]2NC[C@H](OC(C)=O)[C@H]2OC(C)=O)cc1"
  TGI: "0.371 µM"
- compound: "C=CCN1C(=O)/C(=C/c2ccccc2)N=C1SC/C=C/C"
  TGI: "> 100 µM"
- compound: "Cc1cc(N(CCC#N)CCC#N)ccc1N=Nc1ccccc1[N+](=O)[O-]"
  TGI: "> 100 µM"
- compound: "Cc1c2[nH]c3ccc(Br)cc3c2c(C)c2[nH]ccc(=O)c12"
  TGI: "24.2 µM"
- compound: "O=C1CCCSCCCC(=O)CCCSCCC1"
  TGI: "> 100 µM"
- compound: "COC(=O)C/C(C)=C/[C@@H](O)[C@H]1O[C@@H]2CC/C(Cl)=C/C/C=C(/C)[C@H](OC(C)=O)CC(=O)O[C@@H]1C2"
  TGI: "> 25 µM"
- compound: "CN(C)c1ccc(/C=C(\\NC(=O)c2ccccc2)c2nc3ccccc3c(=O)o2)cc1"
  TGI: "> 100 µM"
- compound: "COc1ccc(/C=C/C(=N/NC(=O)N/N=C(/C=C/c2ccc(OC)cc2)C(C)C)C(C)C)cc1"
  TGI: "> 100 µM"
- compound: "COC(=O)C1Cc2c(n(C)c3ccccc23)C(c2ccccc2)N1 (stereo unspecified)"
  TGI: "> 100 µM"
- compound: "COc1ccc(-n2c(-c3ccc(NC(=O)CCCl)cc3)nnc2-c2cc(OC)c(OC)c(OC)c2)cc1"
  TGI: "4.37 µM"
- compound: "CCOC(=O)C(C)c1nc2cc(F)c(N3CCOCC3)cc2[nH]c1=O (stereo unspecified)"
  TGI: "> 100 µM"
- compound: "CCOC(=O)CCN1C(=O)c2ccc(NC(=O)C(=O)O)cc2S1(=O)=O"
  TGI: "> 100 µM"
- compound: "CC1=CC(=C(c2ccc(N)c(C)c2)c2ccc(N)c(C)c2)C=CC1=N"
  TGI: "84.9 µM"

The reported measurements were obtained from PubChem BioAssay (NCI).
